# assayProtocol: Toxicity in ip dosed Swiss mouse
# Assay type: organism-based
# protocolConditions: in vivo
testReadout: LD50

Prompt line: Query LD50 for CNc1nc2ccccc2n2c(CCc3ccccc3)cnc12
Response line: > 300 mg/kg
